Sourced from the NIST ThermoML archive (doi:10.1021/je2007378)

experiment: excess molar enthalpy (molar enthalpy of mixing); xn = mol fraction of the nth substance listed; details: 298.15 K; 101 kPa; Liquid; Calvet calorimetry; x1 = 0.5
Measured Parameter: excess molar enthalpy (kcal/mol)

// solved cases for excess molar enthalpy follow
Compound: C[Si](C)(C)O[Si](C)(C)O[Si](C)(C)O[Si](C)(C)C [decamethyltetrasiloxane] + CCCCCCC
excess molar enthalpy [kcal/mol]: 0.239

Compound: C[Si](C)(C)O[Si](C)(C)O[Si](C)(C)C [octamethyltrisiloxane] + CCCCCCC
excess molar enthalpy [kcal/mol]: 0.239

P. C[Si](C)(C)O[Si](C)(C)O[Si](C)(C)O[Si](C)(C)O[Si](C)(C)C [dodecamethylpentasiloxane] + CCCCCCC
Q. C[Si](C)(C)O[Si](C)(C)C [hexamethyldisiloxane] + CCCCCCC
Req: Which numeric excess molar enthalpy is bigger, that of P or that of Q ? The response must carry the label of the picked entry.
Resp: Q

----------
settings: 298.15 K; 101.33 kPa; Liquid; Vibrating tube method
Measured Parameter: molar volume (m3/mol)

Molecule: CCCCCCC [heptane]
Measured Parameter: molar volume
Measurement: 0.0001474

Molecule: C[Si]1(C)O[Si](C)(C)O[Si](C)(C)O[Si](C)(C)O[Si](C)(C)O1 [decamethylcyclopentasiloxane]
Measured Parameter: molar volume
Measurement: 0.0003889

Molecule: C[Si](C)(C)O[Si](C)(C)O[Si](C)(C)C [octamethyltrisiloxane]
Measured Parameter: molar volume
Measurement: 0.0002903

Molecule: C[Si](C)(C)O[Si](C)(C)O[Si](C)(C)O[Si](C)(C)C [decamethyltetrasiloxane]
Measured Parameter: molar volume
Measurement: 0.0003662

Molecule: C[Si](C)(C)O[Si](C)(C)O[Si](C)(C)O[Si](C)(C)O[Si](C)(C)C [dodecamethylpentasiloxane]
Measured Parameter: molar volume
Measurement: 0.0004424

a. C[Si]1(C)O[Si](C)(C)O[Si](C)(C)O[Si](C)(C)O1 [octamethylcyclotetrasiloxane]
b. C[Si](C)(C)O[Si](C)(C)C [hexamethyldisiloxane]
Req: From the recorded data, which exceeds the other in molar volume: a or b ? Indicate your choice by writing its label.
Resp: a
